# tested_target: Skp1 (F139D) (Homo sapiens, UniProt P63208, F139D)
# Construct: His6
# Sequence (P63208 whole entry F139D): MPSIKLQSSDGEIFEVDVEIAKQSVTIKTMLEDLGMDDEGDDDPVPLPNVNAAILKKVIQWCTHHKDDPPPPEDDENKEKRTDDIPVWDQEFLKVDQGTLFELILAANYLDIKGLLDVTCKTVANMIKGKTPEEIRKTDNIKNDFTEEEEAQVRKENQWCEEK
# test_protocol: SPRi assay, Skp1 mutant
assay_readout: Kd
I'd appreciate it if you included the unit after the number.

Req: Requested read-out: Kd. Entry: Nc1ccc(-c2nc3ccccc3c3[nH]c4ccccc4c23)cc1 [Z0933M]
Resp: 1140 nM

###

# Test system: HCT116
# test_protocol: Cell viability assay (Cell-Titer GLO)
# Type: cell-based
# test_parameters: Homo sapiens, HCT-116, Colon carcinoma, 48 hrs, read-out: Anti-proliferative EC50
# Experimental: For cell viability, cells were seeded in 384 opaque-walled plates with clear bottoms at 300–500 cells per well (optimum density for growth) in a total volume of 20 μL of media. The media was according to culture conditions of each individual cell line (mentioned above). […] Then, 25 μL of Cell-Titer GLO reagent (Promega) was added, and luminescence was measured on an EnSpire multimode plate reader (PerkinElmer), according to the manufacturer’s instructions. […]
assay_readout: pEC50
Entry type: numeric. Quantity: pEC50, the -log10 of concentration in molar units.

Req: Recorded pEC50 for Nc1ccc(-c2nc3ccccc3c3[nH]c4ccccc4c23)cc1 [Z0933M] , please?
Resp: 5.55

Data credit: paper PMC9249674
